Target desc: T1, human GIP receptor (human, UniProt P48546 22-466)
T1 sequence (looked up): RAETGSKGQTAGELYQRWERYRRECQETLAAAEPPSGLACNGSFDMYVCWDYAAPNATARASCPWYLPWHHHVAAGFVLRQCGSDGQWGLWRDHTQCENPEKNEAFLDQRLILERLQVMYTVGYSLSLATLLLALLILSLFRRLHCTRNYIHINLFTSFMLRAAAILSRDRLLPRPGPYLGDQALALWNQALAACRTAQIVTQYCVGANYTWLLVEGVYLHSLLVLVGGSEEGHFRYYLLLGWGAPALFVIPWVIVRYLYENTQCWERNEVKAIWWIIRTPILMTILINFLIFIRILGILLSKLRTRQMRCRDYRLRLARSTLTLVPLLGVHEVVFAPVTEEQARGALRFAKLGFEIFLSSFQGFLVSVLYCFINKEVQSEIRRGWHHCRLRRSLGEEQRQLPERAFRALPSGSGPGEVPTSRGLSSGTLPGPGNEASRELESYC
Test: cell-based or functional assay
Positions of bridges follow the written chain, without caps; N, C: chain ends. Non-standard residues stand in square brackets, D forms with d. No end group written: not given here. *: point of attachment. Acetyl(2-(4-imidazolyl)) = O=C(Cc1c[nH]cn1)*; Aib = CC(C)(N)C(=O)O
Consider the following binders; for each one, report its In vitro Activity Compared to Native Peptide (%) vs. GIP.

# count of solved cases: 2
Binder	Reading
H[Aib]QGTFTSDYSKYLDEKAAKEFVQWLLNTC (bridge 16-20) [triple agonist of SEQ ID NO: 29]	< 0.1%
[Acetyl(2-(4-imidazolyl))]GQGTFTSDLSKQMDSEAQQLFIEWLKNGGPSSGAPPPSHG [triple agonist of SEQ ID NO: 16]	< 0.1%

We next turn to a different binder, shown below.
# In vitro Activity Compared to Native Peptide (%) vs. GIP of {Acetyl(2-(4-imidazolyl))}-[Aib]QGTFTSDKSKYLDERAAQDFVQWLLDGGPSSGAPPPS (ends and bridges not checked) [triple agonist of SEQ ID NO: 62] = < 0.1%
